Here is a set of molecules with reported Ki for Rho-associated protein kinase 1 (Homo sapiens), compiled from the literature.
quantity-kind: Ki

>>> test_result("NCc1ccc(Oc2ccnc3[nH]cc(-c4ccnc(NCc5ccccc5)c4)c23)cc1")
"0.003 to 0.03 µM"
>>> test_result("Cc1c[nH]c2nccc(Oc3ccc(CC(N)C(=O)NCc4cccs4)cc3F)c12 (centres unmarked)")
"< 0.003 µM"
>>> test_result("CN(C)CCCNC(=O)[C@@H](N)Cc1ccc(Oc2ccnc3[nH]cc(CO)c23)c(F)c1")
"0.003 to 0.03 µM"
>>> test_result("O=C(Cc1ccc(F)cc1)N(c1nc(-c2c[nH]c3ncccc23)cs1)C1CC1")
"< 0.5 µM"
>>> test_result("CNC(=O)C1(NC(=O)[C@@H](N)Cc2ccc(Oc3ccnc4[nH]cc(C)c34)c(F)c2)CCCCC1")
"< 0.003 µM"
>>> test_result("CC(C)S(=O)(=O)Nc1ccc(CC(=O)Nc2nc(-c3c[nH]c4ncccc34)cs2)c(Cl)c1")
"< 0.5 µM"
>>> test_result("CCOC(=O)c1nn2c(c1C#N)NC(C)=C(C(=O)Nc1ccc3[nH]ncc3c1)C2c1ccc(C(F)(F)F)cc1 (centres unmarked)")
"< 0.05 µM"
>>> test_result("CCOC(=O)c1cc2n(n1)C(c1ccc(C(F)(F)F)c(F)c1)C(C(=O)Nc1ccc3cncc(C)c3c1)=C(C)N2 (centres unmarked)")
"< 0.05 µM"
>>> test_result("Cc1c[nH]c2nccc(Oc3ccc(C[C@H](N)C(=O)Nc4ccccc4)cc3F)c12")
"< 0.003 µM"
>>> test_result("Cc1ccc(CNc2cccc(-c3c[nH]c4ncc(Cl)cc34)n2)cc1")
"0.5 to 5 µM"
>>> test_result("CC(=O)N1[C@H](C)CN(c2cccc(-c3c[nH]c4ncc(NC(=O)c5ccno5)cc34)n2)C[C@@H]1C")
"0.5 to 5 µM"
>>> test_result("CC(C)(C)OC(=O)N1CCN(c2cccc(-c3c[nH]c4ncc(Cl)cc34)n2)CC1")
"0.5 to 5 µM"
>>> test_result("C[C@H](Nc1cc(C(=O)O)nc(-c2c[nH]c3ncc(Cl)cc23)n1)c1ccc(F)cc1")
"0.5 to 5 µM"
>>> test_result("CC(=O)NCCNC(=O)[C@H](C)Nc1nc(-c2c[nH]c3ncc(Cl)cc23)ncc1F")
"0.5 to 5 µM"
>>> test_result("CC(=O)N1CCC(CNc2nc(-c3c[nH]c4ncc(Cl)cc34)ncc2F)CC1")
"0.5 to 5 µM"
>>> test_result("CCN(CC)S(=O)(=O)c1cccc(CC(=O)Nc2cc(-c3ccnc(F)c3)cs2)c1")
"< 0.1 µM"
>>> test_result("C[C@H](Nc1nc(-c2c[nH]c3ncc(Cl)cc23)ncc1F)C(=O)NCCCN1CCCC1")
"0.5 to 5 µM"
>>> test_result("CC(=O)N1[C@H](C)CN(c2cccc(-c3c[nH]c4ncc(NC(=O)OCC(C)(C)C)cc34)n2)C[C@@H]1C")
"0.5 to 5 µM"
>>> test_result("CS(=O)(=O)Nc1ccc(F)c(CC(=O)Nc2cc(-c3ccnc(F)c3)cs2)c1")
"< 0.1 µM"
>>> test_result("O[C@H]1CCCC[C@@H]1Nc1cccc(-c2c[nH]c3ncc(Cl)cc23)n1")
"0.5 to 5 µM"
>>> test_result("Cc1c[nH]c2nccc(Oc3ccc(C[C@H](N)c4nc(CCc5ccccc5)no4)cc3F)c12")
"< 0.005 µM"
>>> test_result("CN(C)CCNC(=O)[C@H](N)Cc1ccc(Oc2ccnc3[nH]ccc23)cc1")
"> 0.03 µM"
>>> test_result("CC1=C(C(=O)Nc2ccc3cnccc3c2)C(c2ccc3cc[nH]c3c2)n2nc(CO)cc2N1 (centres unmarked)")
"< 0.05 µM"
>>> test_result("CN1C[C@@H]2C[C@H]1CN2C(=O)[C@@H](N)Cc1ccc(Oc2ccnc3[nH]cc(CO)c23)c(F)c1")
"0.003 to 0.03 µM"
>>> test_result("O=C(Cc1ccc(F)cc1F)Nc1nc(-c2ccnc(NCc3ccccc3)c2)cs1")
"0.1 to 1 µM"
>>> test_result("CC(C)CC(=O)N1CCN(c2cccc(-c3c[nH]c4ncc(Cl)cc34)n2)CC1")
"0.5 to 5 µM"
>>> test_result("O=C(O)Cc1cccc(-c2c[nH]c3ncc(Cl)cc23)c1")
"0.5 to 5 µM"
>>> test_result("CC1=C(C(=O)Nc2ccc3cnccc3c2)C(c2ccc(C(F)(F)F)c(F)c2F)n2nc(CN(C)C)cc2N1 (centres unmarked)")
"< 0.05 µM"
>>> test_result("C[C@H](Nc1nc(-c2c[nH]c3ncc(Cl)cc23)ncc1C(F)(F)F)C(=O)NCC(F)(F)F")
"0.5 to 5 µM"
>>> test_result("O=C(NCc1ccccc1)c1ccc(-c2c[nH]c3ncccc23)s1")
"< 0.5 µM"
>>> test_result("CC(=O)N1[C@H](C)CN(c2cc(C)c(C#N)c(-c3c[nH]c4ncc(Cl)cc34)n2)C[C@@H]1C")
"0.5 to 5 µM"
>>> test_result("O=C(Cc1cccc(OCCCC2CCNCC2)c1)Nc1nc(-c2c[nH]c3nccc(F)c23)cs1")
"< 0.5 µM"
